test: Mouse pharmacokinetics, i.p. injection; settings: in vivo, ip, female ICR (CD-1) mice, single 16 mg/kg i.p., plasma, LC-MS/MS, noncompartmental from mean profile, n = 3/time point
Starred links: 1 amine or outer side, 2 acyl side, 3 side chain; linkers in the order of their positions; H or OH if unused. Positions of bridges follow the written chain, without caps; N, C: chain ends. Non-standard residues stand in square brackets, D forms with d. Residues, ends and D or L forms follow the SMILES beside them. *: point of attachment. Orn(4R-OH,5R-OCH2CH2NMe3+) = C[N+](C)(C)CCO[C@@H](N[*:3])[C@H](O)C[C@H](N[*:1])C(=O)[*:2]; pTerphenylCO(4''-OnC5H11) = CCCCCOc1ccc(-c2ccc(-c3ccc(C(=O)*)cc3)cc2)cc1; hTyr(3S-OH,4S-OH) = N[C@H](C(=O)O)[C@H](O)[C@@H](O)c1ccc(O)cc1; Pro(3S-OH,4S-Me) = C[C@H]1CN[C@H](C(=O)O)[C@H]1O; Hyp = O=C(O)[C@@H]1C[C@@H](O)CN1
PROPERTY_LABEL: AUC(0-inf) (µg·h/mL)
Give bare numbers, in µg·h/mL.

IN: Dear colleague, I am looking for the recorded AUC(0-inf) of the following compound: CCCCCOc1ccc(-c2ccc(-c3ccc(C(=O)N[C@H]4C[C@@H](O)[C@@H](OCC[N+](C)(C)C)NC(=O)[C@@H]5[C@@H](O)[C@@H](C)CN5C(=O)[C@H]([C@@H](C)O)NC(=O)[C@H]([C@H](O)[C@@H](O)c5ccc(O)cc5)NC(=O)[C@@H]5C[C@@H](O)CN5C(=O)[C@H]([C@@H](C)O)NC4=O)cc3)cc2)cc1 [CD101] ({pTerphenylCO(4''-OnC5H11)}-[Orn(4R-OH,5R-OCH2CH2NMe3+)]T[Hyp][hTyr(3S-OH,4S-OH)]T[Pro(3S-OH,4S-Me)]; lactam 1-C)
OUT: 1200

Each recorded value in this set is attributed to paper PMC5365648.
